# Assay notes: Rat plasma stability (half-life in vitro)
# Assay type: in vitro ADME
# Experimental setup: male, Sprague-Dawley, rat, plasma, Table I; rat plasma, 37° C., up to 24 h
Observed property: half-life at 0.182 mM

[in] Consider the compound CCCC[C@H](NC(=O)[C@@H]1CCCN1C(=O)CNC(=O)[C@H](CCCCN)NC(=O)[C@@H]1CC(=O)NC[C@H](NC(=O)[C@H](CCCNC(=N)N)NC(=O)[C@@H]2CCC(=O)N2)C(=O)N[C@@H](CCCNC(=N)N)C(=O)N[C@@H](CC(C)C)C(=O)N[C@@H](CO)C(=O)N1)C(=O)N1CCC[C@H]1C(=O)N[C@@H](Cc1ccccc1)C(=O)O [Compound 14, Pyr-R-c[Dap-R-L-S-Asp]c-K-G-P-Nle-P-F] . State its measured half-life at 0.182 mM.
[out] 12 min
